biological target: 3',5'-cyclic-AMP phosphodiesterase 4B (Homo sapiens)
Sequence (Q07343 whole entry): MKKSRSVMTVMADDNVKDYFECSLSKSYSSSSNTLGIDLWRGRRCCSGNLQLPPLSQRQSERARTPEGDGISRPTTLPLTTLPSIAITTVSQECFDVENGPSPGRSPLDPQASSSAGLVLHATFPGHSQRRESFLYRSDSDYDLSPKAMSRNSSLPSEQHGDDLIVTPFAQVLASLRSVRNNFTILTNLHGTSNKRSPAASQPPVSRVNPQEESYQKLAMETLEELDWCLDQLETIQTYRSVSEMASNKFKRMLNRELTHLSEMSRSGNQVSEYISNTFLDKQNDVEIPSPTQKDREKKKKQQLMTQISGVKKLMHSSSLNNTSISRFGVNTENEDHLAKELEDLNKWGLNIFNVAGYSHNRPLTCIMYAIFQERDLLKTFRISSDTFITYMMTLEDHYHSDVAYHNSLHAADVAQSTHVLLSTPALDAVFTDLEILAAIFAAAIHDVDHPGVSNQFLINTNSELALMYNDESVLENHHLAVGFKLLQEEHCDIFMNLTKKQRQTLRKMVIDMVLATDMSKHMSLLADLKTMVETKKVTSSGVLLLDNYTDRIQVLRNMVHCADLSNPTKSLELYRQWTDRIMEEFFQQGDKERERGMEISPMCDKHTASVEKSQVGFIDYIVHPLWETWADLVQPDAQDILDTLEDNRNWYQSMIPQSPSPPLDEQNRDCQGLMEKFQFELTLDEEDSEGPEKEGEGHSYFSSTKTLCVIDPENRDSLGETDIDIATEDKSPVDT
Property: Ki (nM)
Provide only the numeric value, understood in nM.

Solved entries:
- Molecule Smiles: "COC(=O)N1C[C@@H](C(=O)O)[C@H](c2ccc(OC)c(OC3CCCC3)c2)C1"
  Result Number: 1880
- Molecule Smiles: "COC(=O)[C@@H]1CN(C(N)=O)C[C@H]1c1ccc(OC)c(OC2CCCC2)c1"
  Result Number: 1480

**Query** Item COc1ccc([C@@H]2CN(C(=O)OC(C)(C)C)C[C@H]2CO)cc1OC1CCCC1 with 3',5'-cyclic-AMP phosphodiesterase 4B (Homo sapiens) - Ki?
**Result** 50

====

Let's go through some recorded pKi values for 3',5'-cyclic-AMP phosphodiesterase 4B (Homo sapiens, UniProt Q07343) together.
Reminder that pKi is minus the log10 of a molar concentration.

Solved entries:
- Molecule Smiles: "COC(=O)N1C[C@@H](C#N)[C@H](c2ccc(OC)c(OC3CCCC3)c2)C1"
  pKi: 7.10
- Molecule Smiles: "COc1ccc([C@@H]2CN(C(=O)OC(C)(C)C)C[C@H]2NC(=O)OC(C)(C)C)cc1OC1CCCC1"
  pKi: 5.80
- Molecule Smiles: "COC(=O)[C@@H]1CN(C(=O)OC(C)(C)C)C[C@H]1c1ccc(OC)c(OCCCOc2ccccc2)c1"
  pKi: 6.62

Now consider a different compound.
**Query** Item CCOC(=O)[C@@H]1CN(C(=O)OC)C[C@H]1c1ccc(OC)c(OC2CCCC2)c1 with 3',5'-cyclic-AMP phosphodiesterase 4B (Homo sapiens, UniProt Q07343) - pKi?
**Result** 6.26

Reference for the values: ChEMBL document CHEMBL1128806
